# Target desc: human mAChR M1 (Homo sapiens)
# Sequence (P11229 1-460): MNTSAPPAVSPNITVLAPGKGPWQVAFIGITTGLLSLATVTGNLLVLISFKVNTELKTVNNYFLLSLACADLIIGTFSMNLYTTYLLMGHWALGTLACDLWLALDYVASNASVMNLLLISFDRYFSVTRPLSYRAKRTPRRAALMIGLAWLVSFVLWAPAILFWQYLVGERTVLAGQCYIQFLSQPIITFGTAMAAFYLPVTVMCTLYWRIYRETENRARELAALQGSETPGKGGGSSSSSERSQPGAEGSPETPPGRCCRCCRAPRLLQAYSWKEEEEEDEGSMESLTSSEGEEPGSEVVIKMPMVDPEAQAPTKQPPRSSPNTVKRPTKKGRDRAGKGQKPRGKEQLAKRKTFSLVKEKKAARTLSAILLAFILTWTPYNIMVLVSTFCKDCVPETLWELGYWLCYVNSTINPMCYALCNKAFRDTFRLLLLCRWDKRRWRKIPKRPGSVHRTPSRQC
# Test method notes: mAChR M1 cell-based functional assay (calcium mobilization), PAM mode: increase in the EC20 acetylcholine response
# Method: Chinese hamster ovary (CHO-K1) cells stably expressing rat (r)M1 were purchased from the American Type Culture Collection and cultured according to their indicated protocol. […] Calcium flux was measured using the Functional Drug Screening System (FDSS) 6000 (Hamamatsu Corporation, Tokyo, Japan) as an increase in the fluorescent static ratio. […] Agonist activity was analyzed as a concentration-dependent increase in calcium mobilization upon compound addition. […]
// reported Emax for each item listed

[2H]C1([2H])c2ncccc2C(=O)N1Cc1c(F)cc(-c2ccc(O[C@@H]3CCOC3)c3nn(C)cc23)cc1F [Compound 137] ... 74%
[2H]C1([2H])c2ncccc2C(=O)N1Cc1ccc(-c2cccc3nn(C)cc23)cc1C [Compound 29] ... 81%
[2H]C1([2H])c2ncccc2C(=O)N1Cc1c(F)cc(-c2ccc(O)c3nn(C([2H])([2H])[2H])cc23)cc1F [Compound 132] ... 77%
[2H]C1([2H])c2ncccc2C(=O)N1Cc1c(F)cc(-c2ccc(OC3CCOCC3)c3nn(C)cc23)cc1F [Compound 140] ... 72%
[2H]C1([2H])c2ncccc2C(=O)N1Cc1ccc(-c2ccc3cn(C)nc3c2)cc1F [Compound 20] ... 75%
[2H]C1([2H])c2ncccc2C(=O)N1Cc1ccc(-c2cnc3nn(C([2H])([2H])[2H])cc3c2)cc1F [Compound 118] ... 66%

Proceed to the following item.
## Task Could you share which Emax value was measured for [2H]C1([2H])c2ncccc2C(=O)N1Cc1c(F)cc(-c2ccc(Cl)c3nn(C)cc23)cc1C1CC1 [Compound 206] ?
## Result 81%

* * *

# Target desc: human mAChR M1 (Homo sapiens)
# Test method notes: mAChR M1 cell-based functional assay (calcium mobilization), agonist mode: compound alone, Emax relative to acetylcholine maximum
# Reported conditions: relative to the maximum for acetylcholine
Measured parameter: Emax

# annotated cases, reported Emax shown
[2H]C1([2H])c2ncccc2C(=O)N1Cc1ccc(-c2cc(F)cc3nn(C)cc23)cc1 [Compound 72] ... 4%
[2H]C1([2H])c2ncccc2C(=O)N1Cc1c(F)cc(-c2ccc(F)c3c2cnn3C([2H])([2H])[2H])cc1F [Compound 68] ... 2%
[2H]C1([2H])c2ncccc2C(=O)N1Cc1ccc(-c2cc3cn(C)nc3cc2C)cc1F [Compound 26] ... 3%
[2H]C1([2H])c2ncccc2C(=O)N1Cc1ccc(-c2ccc(OC)c3nn(C([2H])([2H])[2H])cc23)cc1F [Compound 55] ... 7%

## Task Enter reported Emax observed with human mAChR M1 (Homo sapiens) for [2H]C1([2H])c2ncccc2C(=O)N1Cc1ccc(-c2ccc(OC3CN(C(=O)OC(C)(C)C)C3)c3nn(C)cc23)cc1F [Compound 176]
## Result 2%

## Task Now give it for [2H]C1([2H])c2ncccc2C(=O)N1Cc1c(F)cc(-c2cccc3nn(C)cc23)cc1Cl [Compound 166] too.
## Result 5%

## Task Would you kindly repeat that for [2H]C1([2H])c2ncccc2C(=O)N1Cc1c(F)cc(-c2cccc3c2cnn3C(F)F)cc1F [Compound 243] ?
## Result 5%

## Task Next compound up: [2H]C1([2H])c2ncccc2C(=O)N1Cc1c(F)cc(-c2cccc3nn(C([2H])([2H])[2H])cc23)cc1N1CCC1 [Compound 222]
## Result 1%

## Task Entry to check: [2H]C1([2H])c2ncccc2C(=O)N1Cc1ccc(-c2cc(C)c3nn(C)cc3c2)cc1 [Compound 17]
## Result 4%

Data provenance: patent US20240228489A1
